Tested on: TRα and TRβ
assay.info: GH3.TRE-Luc TR reporter assay, antagonist setup (0.25 nM T3)
Assay type: cell-based, rat
condition.description: GH3.TRE-Luc

{"columns": ["molecule", "TR antagonist activity, call"],
 "data": [
  ["O=C(Nc1ccc(Cl)cc1)Nc1ccc(Cl)c(Cl)c1 [Triclocarban]", "Antagonist"],
  ["Oc1ccc(Cl)cc1Cc1ccccc1 [Chlorophene, 2-Benzyl-4-chlorophenol]", "Antagonist"],
  ["Oc1c(Br)cc(Cl)cc1Cc1cc(Cl)cc(Br)c1O [Bromochlorophene]", "Antagonist"],
  ["Oc1cc(Cl)ccc1Oc1ccc(Cl)cc1Cl [Triclosan, 5-Chloro-2-(2,4-dichlorophenoxy) phenol]", "Antagonist"],
  ["CC(C)(C)C(=O)C(Oc1ccc(Cl)cc1)n1ccnc1 (centres unmarked) [Climbazole]", "Antagonist"]
]}

Source listed as paper PMC7567334.
